- test target: HPK1 (MAP4K1) (Homo sapiens, UniProt Q92918)
- Sequence (Q92918 whole entry): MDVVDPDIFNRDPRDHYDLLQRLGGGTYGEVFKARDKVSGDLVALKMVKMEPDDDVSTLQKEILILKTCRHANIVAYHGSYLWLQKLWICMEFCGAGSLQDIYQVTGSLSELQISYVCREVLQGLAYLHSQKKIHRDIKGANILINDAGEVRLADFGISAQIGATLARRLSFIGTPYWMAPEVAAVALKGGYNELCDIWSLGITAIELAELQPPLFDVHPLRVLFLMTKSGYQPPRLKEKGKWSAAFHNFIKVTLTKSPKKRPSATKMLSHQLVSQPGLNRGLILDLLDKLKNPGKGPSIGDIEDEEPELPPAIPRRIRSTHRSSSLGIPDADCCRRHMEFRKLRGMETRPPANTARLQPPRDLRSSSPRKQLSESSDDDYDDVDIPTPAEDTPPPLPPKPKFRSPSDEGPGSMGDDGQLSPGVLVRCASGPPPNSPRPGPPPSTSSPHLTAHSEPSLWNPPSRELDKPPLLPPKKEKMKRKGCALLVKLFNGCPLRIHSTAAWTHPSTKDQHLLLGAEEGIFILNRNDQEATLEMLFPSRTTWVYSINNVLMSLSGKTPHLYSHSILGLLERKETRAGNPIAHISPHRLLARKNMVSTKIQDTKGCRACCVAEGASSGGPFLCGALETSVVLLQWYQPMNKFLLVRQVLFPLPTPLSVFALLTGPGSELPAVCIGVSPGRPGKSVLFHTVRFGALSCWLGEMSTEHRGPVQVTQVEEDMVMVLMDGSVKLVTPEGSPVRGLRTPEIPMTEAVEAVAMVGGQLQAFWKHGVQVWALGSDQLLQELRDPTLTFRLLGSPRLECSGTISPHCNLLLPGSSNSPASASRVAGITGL
assay metric: IC50

Look over these answered cases.
[[record]]
compound = "C/C(Nc1ccc(N(C)C)nc1)=C1/C(=O)Nc2cnc(-c3cnccc3C)cc21 [Example 109]"
obs_value = "< 50 nM"

[[record]]
compound = "C/C(Nc1cnn(C)c1)=C1/C(=O)Nc2cnc(-c3cnn(C)c3C)cc21 [Example 41]"
obs_value = "50 to 100 nM"

[[record]]
compound = "CCS(=O)(=O)n1ccc(N/C(C)=C2\\C(=O)Nc3cnc(-c4cnccc4C)cc32)n1 [Example 94]"
obs_value = "< 50 nM"

[[record]]
compound = "COc1cccc(F)c1-c1ccc2c(n1)/C(=C(\\C)Nc1cnn(C)c1)C(=O)N2 [Example 43]"
obs_value = "< 50 nM"

[[record]]
compound = "CN/C(=C1\\C(=O)Nc2ccc(-c3c(F)cccc3OC)cc21)c1ccccc1 [Example 1]"
obs_value = "100 to 500 nM"

[[record]]
compound = "CCn1cc(N/C(C)=C2\\C(=O)Nc3cnc(-c4c(F)cccc4OC)cc32)cn1 [Example 29]"
obs_value = "< 50 nM"

[[record]]
compound = "C/C(Nc1cc(C)n(CC(F)F)n1)=C1/C(=O)Nc2cnc(-c3cnccc3C)cc21 [Example 170]"
obs_value = "< 50 nM"


Query compound follows.
Problem: # value lookup — system HPK1 (MAP4K1) (Homo sapiens, UniProt Q92918), readout IC50, item C/C(Nc1cnn(C)c1)=C1/C(=O)Nc2cccc(-c3cnccc3C)c21 [Example 159]
Solution: > 500 nM

Hello, the source for this data is patent US20230009626A1, in case you need it.
